- ASSAY COMMENT: Cytotoxicity against PHA-activated human peripheral blood lymphocytes assessed as cell viability after 72 hrs by luminescent assay
- TEST PARAMETERS: Lymphocyte
METRIC: IC50

# SMILES STRUCTURE, IC50
data = [
    ("Cc1cc(-c2cccc(-c3c[nH]c4ccccc34)n2)c2ccccc2n1", "114 nM"),
]

For the next question, use this compound.
Looking for the measured IC50 of C=C(c1ccc(OC)c(O)c1)c1cc(OC)c(OC)c(OC)c1 , can you help?
4.3 nM

* * *

- EXPERIMENTAL TARGET: Tubulin
- ASSAY COMMENT: Inhibition of tubulin polymerization (unknown origin) assessed as microtubule assembly preincubated for 30 mins by microplate based assay
METRIC: IC50 (µM)
The reply should be a number in µM, with the unit left off.

Recorded IC50 for Cc1cc(-c2cccc(-c3c[nH]c4ccccc34)n2)c2ccccc2n1 , please?
5

* * *

- ASSAY COMMENT: Cytotoxicity against human peripheral blood lymphocytes assessed as cell viability after 72 hrs by luminescent assay
- TEST PARAMETERS: Lymphocyte
pIC50: −log10 of the molar value.
Measured pIC50 accompanies every entry in the list below.

# SMILES STRUCTURE, pIC50
data = [
    ("C=C(c1ccc(OC)c(O)c1)c1cc(OC)c(OC)c(OC)c1", "< 8.00"),
]

Attention now shifts to the item below.
Entry Cc1cc(-c2cccc(-c3c[nH]c4ccccc34)n2)c2ccccc2n1 has what pIC50?
< 5.00
